I'd be grateful if you could share measured pIC50 for these entries.
- SYSTEM: T1, hRET.mmh (human, UniProt P07949 29-635, biotinylated in the ELISA of Example 4 (biot-hRET.mmh); not in the SPR of Example 3)
- T1 construct: also called biot-hRET.mmh; soluble monomeric human RET
- TEST_METHOD_NOTES: competition sandwich ELISA: 1 nM biot-hRET.mmh + antibody, plate-coated GDNF/GFRα1 co-complex
Numbers only, as −log10 of the molar value.

{"BINDER": "H4H8071P (antibody, human IgG4, V domains shown, human IgG4 Fc (H4H prefix)) VH: EVQLVESGGGLVQPGGSLRLSCAASGFTFTTYFMSWVRQAPGKGLEWVSGISGSGTSTFYVDSMKGRFTISRDNSKNTLYLQMNSLRVEDTAVYFCAKENTYGHFDFWGQGTLVTVSS VL: DIQLTQSPSFLSASVGDRVTITCWASQDISSHLAWYQQKPGKAPKVLIYDASTLQSGVPSRISGSGSGTEFTLTISSLQPEDFAAYYCQQLDGYPYTFGQGTKLEIK", "EXPERIMENTAL_RESULT": 9.44}

Okay, now this binder:
Requested field: pIC50. Item: H4H8045P (antibody, human IgG4, V domains shown, human IgG4 Fc (H4H prefix)) VH: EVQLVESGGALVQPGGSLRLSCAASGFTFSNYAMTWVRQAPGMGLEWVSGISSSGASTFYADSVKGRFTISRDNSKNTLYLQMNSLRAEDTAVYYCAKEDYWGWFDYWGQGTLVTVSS VL: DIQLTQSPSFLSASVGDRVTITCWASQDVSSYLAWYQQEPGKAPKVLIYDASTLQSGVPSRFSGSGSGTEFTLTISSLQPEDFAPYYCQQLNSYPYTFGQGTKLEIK
9.47
